# Test system: 616215-338-R-J1-PDC tumor spheroids, viability;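 note: spheroids exposed to agents for 7 days before readout; percent viability relative to DMSO vehicle control wells taken as 100%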
# method_notes: Anticancer human tumor 616215-338-R-J1-PDC patient-derived colon adenocarcinoma cell line growth inhibition [GQUAD]
# measurement_context: second compound 0.1 µM; first compound 1 µM; active compounds read low; spheroids with HUVEC and MSC
readout_label: viability, T/C (%)
# number only, unit % dropped from output

[[record]]
compound = "CC1COCCN1c1cc(C2(O)CC3CCC(C2)O3)c2cnn(-c3ccn[nH]3)c2n1 (stereo not drawn) + CN(C)c1ccc(Nc2c3ccc(NC(=O)CCN4CCCC4)cc3nc3cc(NC(=O)CCN4CCCC4)ccc23)cc1"
tested_system = "616215-338-R-J1-PDC tumor spheroids, viability"
readout_label = "viability, T/C"
val = 30.3

[[record]]
compound = "COc1cccc2c1C(=O)c1c(O)c3c(c(O)c1C2=O)CC(O)(C(=O)CO)CC3OC1CC(N)C(O)C(C)O1 (stereo not drawn) + Cc1[nH]c2ccc(F)cc2c1-c1nc2c3cccnc3c3ncccc3c2[nH]1"
tested_system = "616215-338-R-J1-PDC tumor spheroids, viability"
readout_label = "viability, T/C"
val = 41.5


# ---- query compound ----
// field: viability, T/C; key: CCCS(=O)(=O)Nc1ccc(F)c(C(=O)c2c[nH]c3ncc(-c4ccc(Cl)cc4)cc23)c1F + Cc1[nH]c2ccc(F)cc2c1-c1nc2c3cccnc3c3ncccc3c2[nH]1 ; value = 102
